system: HL-60(TB) leukemia; assay: NCI tumour cell line growth inhibition, 48 h; in the data active means GI50 below about 0.43 µM; inactive means the rest
Outcome codes: label 1 = active, label 0 = inactive

>>> answerlabel("O=C(/C=C\\c1ccc(Cl)c(Cl)c1)c1ccc(Cl)cc1Cl")
"label 0"
>>> answerlabel("Cc1cc2c(cc1Cl)SC(N(N(C)C)S(=O)(=O)c1ccc(Cl)cc1)=NS2(=O)=O")
"label 0"
>>> answerlabel("CO[C@H]1/C=C(/C)CCC[C@H](C)[C@H](O)[C@@H](C)C(=O)C(C)(C)[C@@H](O)CC(=O)O[C@@H]1/C(C)=C/c1csc(C)n1")
"label 1"
>>> answerlabel("Cc1cc(-c2ccc3nc(C4CCOCC4)n(CCOC(F)(F)F)c3c2)cn(C)c1=O")
"label 1"
>>> answerlabel("Cn1cnc([N+](=O)[O-])c1S(=O)(=O)Oc1cccc2ccccc12")
"label 0"
>>> answerlabel("O=C(CSc1ccc(Cl)cc1)Nc1ccc(-c2nc3ccccc3s2)c(Cl)c1")
"label 0"

The measurements presented in this section are drawn from PubChem BioAssay (NCI).
